B1: ubiquitin-specific peptidase 17 (USP17), wild type [not stated] / TNFR-associated factor 2 (TRAF2) [not stated] (parent complex)
chain 1: MEDDSLYLGGEWQFNHFSKLTSSRPDAAFAEIQRTSLPEKSPLSSEARVDLCDDLAPVARQLAPRKKLPLSSRRPAAVGAGLQNMGNTCYENASLQCLTYTPPLANYMLSREHSQTCQRPKCCMLCTMQAHITWALHSPGHVIQPSQALAAGFHRGKQEDAHEFLMFTVDAMKKACLPGHKQVDHHSKDTTLIHQIFGGCWRSQIKCLHCHGISDTFDPYLDIALDIQAAQSVKQALEQLVKPEELNGENAYHCGLCLQRAPASKTLTLHTSAKVLILVLKRFSDVTGNKLAKNVQYPECLDMQPYMSQQNTGPLVYVLYAVLVHAGWSCHDGHYFSYVKAQEGQWYKMDDAKVTACSITSVLSQQAYVLFYIQKSEWERHSESVSRGREPRALGAEDTDRRATQGELKRDHPCLQAPELDERLVERATQESTLDHWKFPQEQNKTKPEFNVRKVEGTLPPNVLVIHQSKYKCGMKNHHPEQQSSLLNLSSTTRTDQESVNTGTLASLQGRTRRSKGKNKHSKRALLVCQ
chain 2: MAAASVTPPGSLELLQPGFSKTLLGTKLEAKYLCSACRNVLRRPFQAQCGHRYCSFCLASILSSGPQNCAACVHEGIYEEGISILESSSAFPDNAARREVESLPAVCPSDGCTWKGTLKEYESCHEGRCPLMLTECPACKGLVRLGEKERHLEHECPERSLSCRHCRAPCCGADVKAHHEVCPKFPLTCDGCGKKKIPREKFQDHVKTCGKCRVPCRFHAIGCLETVEGEKQQEHEVQWLREHLAMLLSSVLEAKPLLGDQSHAGSELLQRCESLEKKTATFENIVCVLNREVERVAMTAEACSRQHRLDQDKIEALSSKVQQLERSIGLKDLAMADLEQKVLEMEASTYDGVFIWKISDFARKRQEAVAGRIPAIFSPAFYTSRYGYKMCLRIYLNGDGTGRGTHLSLFFVVMKGPNDALLRWPFNQKVTLMLLDQNNREHVIDAFRPDVTSSSFQRPVNDMNIASGCPLFCPVSKMEAKNSYVRDDAIFIKAIVDLTGL

# Variants of: B1
# Run description: co-immunoprecipitation (IP: Myc, IB: Flag) with band quantification; coexpressed in HEK293 cells; parent: 100; read off a plot
Readout name: percent of parent

1) chain 1 Q430A: ~33%
2) chain 1 S484L: ~40%
3) chain 1 P480L: ~68%
4) chain 1 A428V: ~79%
5) chain 1 E431A: ~29%
6) chain 1 Q482R: ~37%
